Test system: SF-268 CNS
Assay: NCI-60 one-dose screen, 48 h
Conditions: 10 µM unless noted
Compounds without any hit were thinned out: in the full panel of roughly 83,000, 20% have a hit. The source made the active and inactive calls. The calls were made as follows: active = growth percent below 10; inactive = the rest.
Choose one outcome from this list and give only that: class 1 (active), class 0 (inactive)

// below: answered molecules
molecule | system_tested | class_assignment
CC1=CC2c3oc(-c4ccccc4)c(C(=O)c4ccccc4)c3CNC2C=C1 (centres undefined) | SF-268 CNS | class 0
CC1(COc2ccc3c(c2)ncn3-c2ccc3cccc(N4CCC(N)CC4)c3n2)COC1 | SF-268 CNS | class 1

# input Could you please tell me the result logged for CCOC(=O)C1=C(C)N=C2Sc3cccc(OC)c3N2[C@H]1c1ccccn1 in this assay?
# output class 0
